- targetOrTestSystem: Protein kinase C alpha type (Homo sapiens)
- assayText: Inhibition of recombinant full length PKC alpha (unknown origin) using RRRRRKGSFKRKA peptide as substrate measured after 15 mins in presence of ATP by spectrophotometric analysis
recordedMetric: log10(Ki) (log10 of the value in nM)
Use the decimal logarithm of Ki (nM).

Guide cases for log10(Ki), answers given:
smilesInput	log10(Ki)
Cc1cc(-c2ccnc3[nH]nc(C(F)(F)F)c23)cc(C2(CN)COC2)c1	2.46
NCC1(c2cccc(-c3ccnc4[nH]nc(C(F)(F)F)c34)c2)COC1	3.01
CC(C)(C#N)c1cccc(-c2ccnc3[nH]ncc23)n1	2.67
NCC1(c2cccc(-c3ccnc4[nH]nc(C(F)(F)F)c34)c2)CCOCC1	2.67
Cc1cc(-c2ccnc3[nH]nc(C(F)(F)F)c23)cc(C2(CN)CCC2)c1	1.78

Reported log10(Ki), compound NCC1(c2cccc(-c3ccnc4[nH]nc(C(F)(F)F)c34)c2)CCC1 : ____
1.76

// same read-out, input: CC(C)(C#N)c1cccc(-c2ccnc3[nH]ccc23)n1
2.04

###

- targetOrTestSystem: UniProt Q04759
- assayText: Inhibition of human recombinant full length His tagged PKC theta expressed in baculovirus using ERMRPRKRQGSVRRRV peptide as substrate incubated for 60 mins in presence of [33P] gammaATP by microbeta liquid scintillation counter
recordedMetric: pKi
# reply with the number alone; pKi is -log10 of concentration in mol/L

compound	recordedMetric	readoutNumber
CC(C)(C#N)c1cccc(-c2ccnc3[nH]ccc23)n1	pKi	8.52
CCCc1cc(-c2ccnc3[nH]ncc23)cc(C(C)(CC)CN)c1 (stereo unspecified)	pKi	7.49
NCC1(c2cccc(-c3ccnc4[nH]nc(C(F)(F)F)c34)c2)CCC1	pKi	8.70
NCC1(c2cccc(-c3ccnc4[nH]ncc34)c2)CCC1	pKi	7.77
NCC1(c2cccc(-c3ccnc4[nH]nc(C(F)(F)F)c34)c2)COC1	pKi	8.22

Reported pKi, compound CCC(C)(CN)c1cccc(-c2ccnc3[nH]nc(C(F)(F)F)c23)c1 (stereo unspecified) : ____
9.40

// same read-out, input: NCC1(c2cccc(-c3ccnc4[nH]ncc34)c2)CCCCC1
7.52

// same read-out, input: NCC1(c2cccc(-c3ccnc4[nH]nc(C(F)(F)F)c34)c2)CCOCC1
8.05

// same read-out, input: CCC(C)(CN)c1cc(C)cc(-c2ccnc3[nH]ncc23)c1 (stereo unspecified)
8.30

// same read-out, input: Cc1cc(-c2ccnc3[nH]nc(C(F)(F)F)c23)cc(C2(CN)COC2)c1
8.10

// same read-out, input: CCC(C)(CN)c1cccc(-c2ccnc3[nH]ncc23)c1 (stereo unspecified)
8.52

###

Recorded pKi for the following compounds
- targetOrTestSystem: Protein kinase C theta type (Homo sapiens)
- Sequence (Q04759 whole entry): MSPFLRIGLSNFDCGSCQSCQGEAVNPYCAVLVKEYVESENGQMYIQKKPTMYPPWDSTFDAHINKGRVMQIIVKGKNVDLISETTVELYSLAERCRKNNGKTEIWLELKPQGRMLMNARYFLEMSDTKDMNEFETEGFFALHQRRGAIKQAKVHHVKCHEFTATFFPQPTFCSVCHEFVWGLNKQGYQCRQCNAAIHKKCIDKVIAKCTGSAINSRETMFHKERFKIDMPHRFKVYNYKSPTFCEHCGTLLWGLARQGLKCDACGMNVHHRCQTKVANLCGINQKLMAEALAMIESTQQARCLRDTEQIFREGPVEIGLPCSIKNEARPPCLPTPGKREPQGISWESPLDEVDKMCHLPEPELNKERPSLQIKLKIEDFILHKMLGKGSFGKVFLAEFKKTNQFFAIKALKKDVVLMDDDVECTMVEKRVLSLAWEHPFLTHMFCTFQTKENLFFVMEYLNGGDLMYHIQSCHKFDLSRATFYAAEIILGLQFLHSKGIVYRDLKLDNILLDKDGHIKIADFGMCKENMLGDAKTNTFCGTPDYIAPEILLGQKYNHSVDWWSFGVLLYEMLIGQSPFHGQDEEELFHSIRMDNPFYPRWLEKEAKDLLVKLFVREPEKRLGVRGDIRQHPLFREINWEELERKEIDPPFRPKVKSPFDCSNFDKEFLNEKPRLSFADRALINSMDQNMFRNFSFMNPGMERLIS
- assayText: Inhibition of human recombinant full length His tagged PKC theta expressed in baculovirus using ERMRPRKRQGSVRRRV peptide as substrate incubated for 60 mins in presence of [33P] gammaATP by microbeta liquid scintillation counter
# reply with the number alone; pKi is -log10 of concentration in mol/L

Guide cases for pKi, answers given:
compound	recordedMetric	readoutNumber
Cc1cc(-c2ccnc3[nH]nc(C(F)(F)F)c23)cc(C2(CN)CCC2)c1	pKi	8.52
NCC1(c2cccc(-c3ccnc4[nH]ncc34)c2)CCCC1	pKi	7.66
C#CCC(C)(CN)c1cccc(-c2ccnc3[nH]ncc23)c1 (stereo unspecified)	pKi	9.70
NCC1(c2cccc(-c3ccnc4[nH]ncc34)c2)CCOCC1	pKi	8.05
CCC(C)(C#N)c1cccc(-c2ccnc3[nH]ncc23)c1 (stereo unspecified)	pKi	7.14

Recall the recorded pKi for CC(C)(CN)c1cccc(-c2ccnc3[nH]ncc23)c1 with Protein kinase C theta type (Homo sapiens) and state it.
7.92

// same read-out, input: CC(C)(C#N)c1cccc(-c2ccnc3[nH]ncc23)n1
7.85

// same read-out, input: CCC(C)(CN)c1cccc(-c2ccnc3[nH]nc(Cl)c23)c1 (stereo unspecified)
9.52

// same read-out, input: CCc1cc(-c2ccnc3[nH]ncc23)cc(C(C)(CC)CN)c1 (stereo unspecified)
7.85

// same read-out, input: CC(C)(C#N)c1cccc(-c2ccnc3[nH]ncc23)c1
7.55
